Every entry's value here was drawn from patent EP0036357A1.

test: Acute toxicity (LD50) in mice, Miller and Tainter method; settings: in vivo; mouse about 20 g, oral route; read-out: DL50 voie orale
endpoint: LD50

What does the record list as LD50 for COc1ccc(-c2nc(=O)n(C(C(=O)c3ccccc3)c3ccccc3)nc2-c2ccc(OC)cc2)cc1 (stereo not drawn) [ST 908] ? > 1000 mg/kg

Given COc1ccc(-c2nc(=O)n(CC(C)=O)nc2-c2ccc(OC)cc2)cc1 [ST 753] , state its recorded LD50. > 1500 mg/kg

Request the reported LD50 associated with CN(C)c1ccc(-c2nc(=O)n(CC(=O)c3ccccc3)nc2-c2ccc(N(C)C)cc2)cc1 [ST 813] > 1000 mg/kg

Recorded LD50 for CCC(=O)CCn1nc(-c2ccc(OC)cc2)c(-c2ccc(OC)cc2)nc1=O [ST 966] , please? > 2000 mg/kg

Recorded LD50 of CN(C)c1ccc(-c2nc(=O)n(C(C(=O)c3ccccc3)c3ccccc3)nc2-c2ccc(N(C)C)cc2)cc1 (stereo not drawn) [ST 911] , please. > 1000 mg/kg

Item CCC(=O)CCn1nc(-c2ccc(N(C)C)cc2)c(-c2ccc(N(C)C)cc2)nc1=O [ST 925] has what recorded LD50? > 1000 mg/kg

Could you tell me which LD50 is on file for COc1ccc(-c2nc(=O)n(CC(=O)c3ccc(O)c(O)c3)nc2-c2ccc(OC)cc2)cc1 [ST 827] ? > 1000 mg/kg

Given the molecule CC(=O)Cn1nc(-c2ccc(N(C)C)cc2)c(-c2ccc(N(C)C)cc2)nc1=O [ST 910] , what is its reported LD50? > 1500 mg/kg

Tell me the measured LD50 of COc1ccc(-c2nc(=O)n(CC(=O)c3ccc(Br)cc3)nc2-c2ccc(OC)cc2)cc1 [ST 844] , please. > 2000 mg/kg

###

Would you kindly list LD50 for each of these molecules?
assay: Acute toxicity (LD50) in mice, Miller and Tainter method; details: in vivo; mouse about 20 g, oral route; read-out: DL50 voie orale

Need LD50 of CN(C)c1ccc(-c2nc(=O)n(CC(=O)c3ccc(O)c(O)c3)nc2-c2ccc(N(C)C)cc2)cc1 [ST 842] , thanks. > 1000 mg/kg

Query (molecule): COc1ccc(-c2nc(=O)n(C(C)C(C)=O)nc2-c2ccc(OC)cc2)cc1 (stereo not shown) [ST 765] ; field requested: LD50 > 2000 mg/kg

Please report the recorded LD50 for CC(=O)C(C)n1nc(-c2ccc(N(C)C)cc2)c(-c2ccc(N(C)C)cc2)nc1=O (stereo not shown) [ST 802] . > 1500 mg/kg

What does the record list as LD50 for CC(=O)CCCn1nc(-c2ccc(N(C)C)cc2)c(-c2ccc(N(C)C)cc2)nc1=O [ST 924] ? > 1500 mg/kg

###

Test: Acute toxicity (LD50) in mice, Miller and Tainter method
Details: in vivo, ip; mouse about 20 g, intraperitoneal route; read-out: DL50 voie I.P.
Description: L'étude de la toxicité a été effectuée chez la souris conventionnelle pesant environ 20 grammes. Les substances ont été administrées par voie orale et intrapéritonéale. Les doses létales 50 sont exprimées en mg/kg et ont été calculées selon la méthode de MILLER et TAINTER, Proc. Soc. Exper. Biol. Med. 1944, 57, 261. A titre d'exemple dans le tableau ci-dessous figurent quelques valeurs de doses toxiques provoquant 50 % de mortalité.
Provide the reported LD50 of each item.

Reported LD50 for CCC(=O)CCn1nc(-c2ccc(N(C)C)cc2)c(-c2ccc(N(C)C)cc2)nc1=O [ST 925] : what is it? > 500 mg/kg

Sample COc1ccc(-c2nc(=O)n(C(C)C(C)=O)nc2-c2ccc(OC)cc2)cc1 (stereo not drawn) [ST 765] — what was its LD50? > 1000 mg/kg

Value lookup for LD50; key = COc1ccc(-c2nc(=O)n(CC(C)=O)nc2-c2ccc(OC)cc2)cc1 [ST 753] > 500 mg/kg

Returns the measured LD50 for the input compound. Input: COc1ccc(-c2nc(=O)n(CC(=O)c3ccc(Br)cc3)nc2-c2ccc(OC)cc2)cc1 [ST 844] ~800 mg/kg

Which LD50 reading was recorded for the compound COc1ccc(-c2nc(=O)n(C(C(=O)c3ccccc3)c3ccccc3)nc2-c2ccc(OC)cc2)cc1 (stereo not drawn) [ST 908] ? > 500 mg/kg

Look up LD50 for this compound: CN(C)c1ccc(-c2nc(=O)n(CC(=O)c3ccccc3)nc2-c2ccc(N(C)C)cc2)cc1 [ST 813] ~750 mg/kg
